system: Alopecurus myosuroides (ALOMY); experiment: B1 Pre-emergence herbicidal activity; type: in vivo; conditions: pre-emergence application, rate 1000 g/ha, evaluated after 13 days
Could you please report measured Pre-emergence herbicidal activity, ALOMY (damage score 0-5) for the items listed next?

STRUCTURE_NOTATION	RESULT_VALUE
COCCC(=O)Nc1ccc(-c2cncc(F)c2)nc1C(F)(F)F	1
C/C=C/C(=O)Nc1ccc(-c2cncc(F)c2)nc1C(F)(F)F	1
Cc1ccsc1C(=O)Nc1ccc(-c2cncc(F)c2)nc1C(F)(F)F	0
COCC(=O)N(COCC(C)(C)C)c1ccc(-c2cncc(F)c2)nc1C(F)(F)F	0

Let us examine a further case.
response.value for Cc1ccc(C(=O)Nc2ccc(-c3cncc(F)c3)nc2C(F)(F)F)s1 (field: Pre-emergence herbicidal activity, ALOMY (damage score 0-5)) = 1
